Cited source for all entries: patent US20250346668A1

target: T1, human CD3e/g antigen (ACRO, catalog number CDG-H52W5) (human, UniProt P07766 23-126; P09693 23-116); experiment: SPR (Biacore 8K), antibody captured via anti-human Fc
T1 construct: Bought reagent used as the Biacore analyte; also called hCD3e/g
property-measured: kon (M⁻¹ s⁻¹)
Reply with just the number (in M⁻¹ s⁻¹).

hAb008-28 (antibody, V domains shown, Humanized; constant regions not specified) VH: QVQLVQSGAEVKKPGASVKVSCKASGYTFTDYTVNWVKQAPGQRLEWIGYINPFNSYTKYNQKFKDRATITADTSASTAYMELSSLRSEDTAVYFCANSVSTYWGQGTTVTVSS VL: DVVMTQSPLSLPVTLGQPASISCKSSQSLLDSDGKTYLNWFQQRPGQSPRRLIYLVSKLNSGVPDRFSGSGSGTDFTLKISRVEAEDVGVYYCWQGTHFPRTFGGGTKLEIK : 162000
hAb007-18 (antibody, V domains shown, Humanized; constant regions not specified) VH: QVQLVQSGAEVKKPGASVKVSCKASGSTFTDNYIHWVRQAPGQRLEWMGWIYPGSVNIKYNEKFKDRVTITRDTSASTAYMELSSLRSEDTAVYYCARDISRYYFDYWGQGTTVTVSS VL: DIVMTQSPDSLAVSLGERATINCKSSQSLLNSRTRKNYLAWYQQKPGQPPKLLIYWASTRESGVPDRFTGSGSGTDFTLTISSLQAEDVAVYYCKQSFILRTFGGGTKLEIK : 401000

// next entry
Lookup: What value of measured kon is listed for CAb007 (antibody, V domains shown, Chimeric: mouse variable regions linked to human light and heavy constant regions; constant regions not specified) VH: QVQLQQSGPELVKPGASVKISCKASGSTFTDNYIHWVKQRPGQGLEWIGWIYPGSVNIKYNEKFKDKATLTADTSSTTAYMQLSSLSSEDSAIYYCARDISRYYFDYWGQGTTLTVSS VL: DIVMSQSPSSLAVSAGERVTMNCKSSQSLLNSRTRKNYLAWYQQKPGQSPKLLIYWASTRESGVPDRFTGSGSGTDFTLTISSVQAEDLAVYYCKQSFILRTFGGGTKLAIK ?
Found: 438000
